src = patent US11839613B2

Target: UniProtKB P43116
Assay: hEP2 cAMP assay (SF295 glioblastoma cells, HTRF cAMP)
Settings: antagonistic activity
From the text: Human tumor cell lines expressing endogenously either EP4 or EP2 are used and cAMP accumulation in cells upon PGE2 stimulation is monitored. […] As a detection method for cAMP the HTRF (homogeneous time resolved fluorescence) Cisbio kit (HTRF cAMP dynamic 2 kit 20'000 tests Cisbio Cat. #62AM4PEC) was used, which is based on a competitive immunoassay using a Cryptate-labeled anti-cAMP antibody and d2-labeled cAMP. […]
Endpoint Label: IC50 (nM)

Structure Smiles: CCSc1cc(-c2cc(NCCc3cc4ccoc4cc3F)ncn2)ccc1C(=O)O
Assayed System: UniProtKB P43116
Endpoint Label: IC50
Readout Number: 102

P. CSc1cc(-c2cc(NCCc3cc4ccoc4cc3F)ncn2)ccc1C(=O)O
Q. CSc1cc(-c2cc(NCCc3ccc4[nH]ccc4c3)ncn2)ccc1C(=O)O
R. O=C(O)c1cc2cc(-c3cc(NCCc4ccc5sccc5c4)ncn3)ccc2o1
S. CCOc1cc(-c2cc(NCCc3ccc4ccccc4c3C)ncn2)sc1C(=O)O
Arrange the 4 entries by IC50 so the values rise. Please list each label once, in the requested order. S, P, R, Q

----------
Biological target: EP2 (Homo sapiens (Human))
Assay: hEP2 cAMP assay (SF295 glioblastoma cells, HTRF cAMP)
Settings: antagonistic activity
Excerpt: Human tumor cell lines expressing endogenously either EP4 or EP2 are used and cAMP accumulation in cells upon PGE2 stimulation is monitored. […] As a detection method for cAMP the HTRF (homogeneous time resolved fluorescence) Cisbio kit (HTRF cAMP dynamic 2 kit 20'000 tests Cisbio Cat. #62AM4PEC) was used, which is based on a competitive immunoassay using a Cryptate-labeled anti-cAMP antibody and d2-labeled cAMP. […]
Endpoint Label: IC50 (nM)

Structure Smiles: CN1CCCc2cc(CCNc3cc(-c4cc(C(F)(F)F)c(C(=O)O)s4)ncn3)c(F)cc21
Endpoint Label: IC50
Readout Number: 892

I. CCOc1cc(-c2cc(NCCc3cc4ccccc4cc3OC(F)F)ncn2)ccc1C(=O)O
II. CCOc1cc(-c2cc(NCCc3ccc4scc(C)c4c3)ncn2)sc1C(=O)O
Larger number for IC50: I , or II ? Lab note: record the label of whichever item you select. I
(I: 571 nM, II: 91 nM)

A. COc1cc2ccccc2cc1CCNc1cc(-c2cc(OC)c(C(=O)O)c(OC)c2)ncn1
B. CCOc1cc(-c2cc(NCCc3c(OC)cc4occc4c3C)ncn2)ccc1CC(=O)O
C. CCOc1cc(-c2cc(NCCc3cc(F)c4sccc4c3)ncn2)ccc1-c1noc(=O)[nH]1
D. CCOc1cc(-c2cc(NCCc3cc4cccnc4cc3F)ncn2)sc1-c1nnn[nH]1
E. CCOc1cc(-c2cc(NCCc3ccc4sccc4c3C)ncn2)ccc1C(=O)O
Rank entries according to their IC50, from the largest number down. Please list each label once, in the requested order. C, A, D, E, B
(C: 660 nM, A: 312 nM, D: 103 nM, E: 61 nM, B: 22 nM)

P. CCOc1cc(-c2cc(NCCc3ccc4ccccc4c3Cl)ncn2)sc1C(=O)O
Q. CCOc1cc(-c2cc(NCCc3ccc4scc(C#N)c4c3)ncn2)ccc1CC(=O)O
Larger number for IC50: P , or Q ? Lab note: record the label of whichever item you select. P
(P: 378 nM, Q: 248 nM)

A. CCOc1cc(-c2cc(NCCc3ccc4cc[nH]c4c3)ncn2)ccc1OCC(=O)O
B. CCOc1cc(-c2cc(NCCc3ccc4ccccc4c3C)ncn2)sc1CC(=O)OC
C. CCOc1cc(-c2cc(NCCc3cc4ccccc4cc3OC(F)F)ncn2)ccc1OCC(=O)O
D. CCOc1cc(-c2cc(NCCc3cc4ccccc4cc3OC(C)C)ncn2)sc1C(=O)O
Arrange the 4 entries by IC50 so the values rise. Please list each label once, in the requested order. A, C, B, D
(A: 295 nM, C: 494 nM, B: 792 nM, D: 7740 nM)

----------
Molecular target: PTGER2 (EP2) (Homo sapiens (Human), UniProt P43116)
Sequence (P43116 whole entry): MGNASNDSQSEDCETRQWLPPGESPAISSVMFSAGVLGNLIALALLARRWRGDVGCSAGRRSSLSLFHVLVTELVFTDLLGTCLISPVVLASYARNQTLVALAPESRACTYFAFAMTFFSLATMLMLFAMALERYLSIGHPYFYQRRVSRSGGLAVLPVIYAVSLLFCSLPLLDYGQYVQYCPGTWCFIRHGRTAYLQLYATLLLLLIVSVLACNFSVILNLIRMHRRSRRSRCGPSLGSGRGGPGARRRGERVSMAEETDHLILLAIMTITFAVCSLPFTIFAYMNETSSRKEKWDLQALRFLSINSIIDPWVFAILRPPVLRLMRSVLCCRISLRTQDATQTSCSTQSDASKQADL
Test: hEP2 b-arrestin assay (PathHunter HEK 293 PTGER2 b-arrestin cells)
Settings: antagonistic activity, beta-arrestin assay; read-out: hEP2 b-arr IC50
Endpoint Label: IC50 (nM)

Example molecules with recorded IC50:
Molecule: CCOc1cc(-c2cc(NCCc3cc4ccoc4cc3F)ncn2)ccc1C(=O)O [Ex 227]
IC50 (nM): 142

Molecule: CSc1cc(-c2cc(NCCc3ccc4occc4c3)ncn2)ccc1C(=O)O [Ex 248]
IC50 (nM): 132

Molecule: COc1cc2c(cc1CCNc1cc(-c3ccc(CC(=O)O)c(OC(F)(F)F)c3)ncn1)OCCO2 [Example 450]
IC50 (nM): 66

Molecule: CSc1cc(-c2cc(NCCc3ccc4cc[nH]c4c3)ncn2)ccc1C(=O)O [Ex 328]
IC50 (nM): 287

Molecule: COc1cc(-c2cc(NCCc3cc(F)c4sccc4c3)ncn2)ccc1CCC(=O)O [Example 560]
IC50 (nM): 476

P. CCOc1cc(-c2cc(NCCc3ccc4sccc4c3)ncn2)cc(F)c1CC(=O)O [Example 370]
Q. CSc1cc(-c2cc(NCCc3ccc4sccc4c3C)ncn2)ccc1C(=O)O [Ex 204]
Param metric = IC50; output whichever of P , Q has the minimum value. Lab note: record the label of whichever item you select. Q
(Q: 12 nM, P: 438 nM)

I. CCOc1cc(-c2cc(NCCc3cc4ccsc4cc3OC)ncn2)ccc1C(=O)O [Ex 109]
II. COc1cc2sccc2cc1CCNc1cc(-c2ccc(C(=O)O)c(OC3CCC3)c2)ncn1 [Ex 63]
Larger number for IC50: I , or II ? Lab note: record the label of whichever item you select. I
(I: 34 nM, II: 16 nM)

----------
Biological target: EP4 (Homo sapiens (Human), UniProt P35408)
Sequence (P35408 whole entry): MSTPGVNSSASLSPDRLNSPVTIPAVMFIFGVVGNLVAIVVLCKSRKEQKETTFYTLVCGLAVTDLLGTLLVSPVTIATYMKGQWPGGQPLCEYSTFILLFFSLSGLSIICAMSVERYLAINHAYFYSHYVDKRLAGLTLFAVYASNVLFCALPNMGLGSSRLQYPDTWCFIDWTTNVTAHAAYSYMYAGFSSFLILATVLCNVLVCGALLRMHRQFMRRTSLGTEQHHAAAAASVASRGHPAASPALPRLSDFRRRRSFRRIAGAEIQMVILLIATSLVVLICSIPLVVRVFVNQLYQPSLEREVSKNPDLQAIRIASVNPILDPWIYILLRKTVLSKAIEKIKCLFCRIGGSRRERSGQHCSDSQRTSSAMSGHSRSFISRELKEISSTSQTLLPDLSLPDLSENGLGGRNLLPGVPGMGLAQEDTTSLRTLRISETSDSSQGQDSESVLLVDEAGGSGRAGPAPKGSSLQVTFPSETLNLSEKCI
Assay: hEP4 cAMP assay (BT549 breast cancer cells, HTRF cAMP)
Format: cell-based
Conditions: antagonistic activity, PGE2 6 nM
Endpoint Label: IC50 (nM)

Example compounds with recorded IC50:
Structure Smiles: CCOc1cc(-c2cc(NCCc3cc4c(cc3C)OCCO4)ncn2)ccc1C(=O)O
IC50 [nM]: 920

Structure Smiles: CCOc1cc(-c2cc(NCCc3cc4c(cnn4C)cc3OC)ncn2)ccc1OCC(=O)O
IC50 [nM]: 613

Structure Smiles: CCOc1cc(-c2cc(NCCc3cc4sccc4cc3OC)ncn2)ccc1C(=O)O
IC50 [nM]: 278

Structure Smiles: CCOc1cc(-c2cc(NCCc3ccc4cccnc4c3C)ncn2)sc1C(=O)O
IC50 [nM]: 13

Structure Smiles: CSc1cc(-c2cc(NCCc3cc(C)c4c(c3)OCCO4)ncn2)ccc1C(=O)O
IC50 [nM]: 538

Structure Smiles: CCOc1cc2ccccc2cc1CCNc1cc(-c2ccc(C(=O)O)c(OCC)c2)ncn1
IC50 [nM]: 206

Structure Smiles: CCOc1cc(-c2cc(NCCc3ccc4cc[nH]c4c3)ncn2)ccc1OCC(=O)O
IC50 [nM]: 212

Structure Smiles: CSc1cc(-c2cc(NCCc3ccc4cc[nH]c4c3)ncn2)ccc1C(=O)O
IC50 [nM]: 938

a. CSc1cc(-c2cc(NCCc3ccc4sccc4c3C)ncn2)ccc1C(=O)O
b. CCOc1cc(-c2cc(NCCc3ccc4sccc4c3C)ncn2)ccc1C(=O)O
c. CCOc1cc(-c2cc(NCCc3c(OC)cc4ccccc4c3C)ncn2)sc1C(=O)O
d. CCOc1cc(-c2cc(NCCc3c(OC)cc4ccccc4c3C)ncn2)ccc1CC(=O)O
Arrange the 4 entries by IC50 so the values rise. Please list each label once, in the requested order. c, d, a, b

P. O=C(O)c1ccc(-c2cc(NCCc3cc4ccoc4cc3F)ncn2)cc1OC1CCC1
Q. CCOc1cc(-c2cc(NCCc3ccc4c(c3)OCO4)ncn2)sc1C(=O)O
Param metric = IC50; output whichever of P , Q has the minimum value. Lab note: record the label of whichever item you select. Q

1. CCOc1cc(-c2cc(NCCc3cc4ccccc4cc3OC(F)F)ncn2)ccc1C(=O)O
2. O=C(O)c1cc2cc(-c3cc(NCCc4ccc5sccc5c4)ncn3)ccc2o1
Param metric = IC50; output whichever of 1 , 2 has the minimum value. Lab note: record the label of whichever item you select. 2

I. CCOc1cc(-c2cc(NCCc3cc4c(cc3C#N)OCCO4)ncn2)ccc1C(=O)O
II. CCOc1cc(-c2cc(NCCc3c(OC)cc4ccccc4c3F)ncn2)ccc1CC(=O)O
Param metric = IC50; output whichever of I , II has the minimum value. Lab note: record the label of whichever item you select. II

----------
Target: EP2 (Homo sapiens (Human), UniProt P43116)
Sequence (P43116 whole entry): as the sequence (P43116 whole entry) above
Assay: hEP2 cAMP assay (SF295 glioblastoma cells, HTRF cAMP)
Settings: antagonistic activity
Endpoint Label: IC50 (µM)

Example compounds with recorded IC50:
Structure Smiles: CCOc1cc(-c2cc(NCCc3c(F)cc4ncccc4c3F)ncn2)ccc1OCC(=O)O
Unit Annotation: µM
IC50: 0.329

Structure Smiles: CCOc1cc(-c2cc(NCCc3ccc4ncccc4c3F)ncn2)sc1C(=O)O
Unit Annotation: µM
IC50: 0.222

Structure Smiles: CCOc1cc(-c2cc(NCCc3ccc4ccsc4c3)ncn2)ccc1C(=O)O
Unit Annotation: µM
IC50: 0.714

Structure Smiles: CCOc1cc(-c2cc(NCCc3ccc4ccccc4c3)ncn2)sc1-c1noc(=O)[nH]1
Unit Annotation: µM
IC50: 0.683

Structure Smiles: CCOc1cc(-c2cc(NCCc3cc4ccccc4c(F)c3OC)ncn2)ccc1C(=O)O
Unit Annotation: µM
IC50: 0.269

I. COc1cc2occc2cc1CCNc1cc(-c2ccc(C(=O)O)c(OC3CCC3)c2)ncn1
II. CCOc1cc(-c2cc(NCCc3ccc4ncccc4c3)ncn2)sc1-c1noc(=O)[nH]1
Larger number for IC50: I , or II ? Lab note: record the label of whichever item you select. II
(II: 0.459 µM, I: 0.029 µM)

I. Cc1csc2ccc(CCNc3cc(-c4ccc(C(=O)O)c(OC5CCC5)c4)ncn3)cc12
II. CCOc1cc(-c2cc(NCCc3cc4c(cc3C)OCCO4)ncn2)sc1-c1noc(=O)[nH]1
III. CCOc1cc(-c2cc(NCCc3ccc4c(c3)OCCC4)ncn2)ccc1CC(=O)O
IV. CCOc1cc2c(cc1CCNc1cc(-c3ccc(CC(=O)O)c(OCC)c3)ncn1)OCCO2
Arrange the 4 entries by IC50 so the values rise. Please list each label once, in the requested order. II, IV, I, III
(II: 0.041 µM, IV: 0.069 µM, I: 0.274 µM, III: 12.2 µM)

I. CCOc1cc(-c2cc(NCCc3cc(Cl)c4sccc4c3)ncn2)ccc1C(=O)O
II. CCOc1cc(-c2cc(NCCc3ccc4c(c3)OCCC4)ncn2)sc1C(=O)O
Larger number for IC50: I , or II ? Lab note: record the label of whichever item you select. II
